Numbers sourced from the supplement of paper PMC10567573.

// reported protein stability index per item
B1: PTPRD (parent)
chain: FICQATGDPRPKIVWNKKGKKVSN

Variants of: B1
assay_explanation: protein stability index of a GFP-peptide fusion (GPS, HEK-293T) (PSI 1-6); higher = more stable;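 further: lentivirally expressed fusions sorted by FACS into six bins by GFP to DsRed ratio, PSI derived from sequencing read proportions per bin multiplied by bin number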
test_context: c terminus: a fixed tail appended

(Q) What value of protein stability index has been recorded for this entry: FICQATGDPRPKIVWNKKGKKVSA [N24A]
(A) 1.97

(Q) What value of protein stability index has been recorded for this entry: FICQATGDPRPKIVWNKKGLKVSN [K20L]
(A) 1.96

(Q) What value of protein stability index has been recorded for this entry: FICQATGDPRPKIVWNKKGCKVSN [K20C]
(A) 1.17
